System: SK-MEL-28 melanoma
Assay: NCI tumour cell line growth inhibition, 48 h
Assay Metric: GI50

Example entries and their recorded answers appear below.
CCCCCCCCCCCCC(NC(C)=O)(C(=O)OCC)C(=O)OCC: 13.5 µM
CCC1(N)C(=O)OCc2c1cc1n(c2=O)Cc2cc3ccccc3nc2-1 (stereo unspecified): 41.7 µM
N.N.NCCCCCN.O=C([O-])CC(=O)[O-].O=C([O-])CC(=O)[O-].[Pt+4].[Pt+4]: > 100 µM
CC(C)c1cc(C(=O)[O-])c(O)c(C(C)C)c1.CC(C)c1cc(C(=O)[O-])c(O)c(C(C)C)c1.CC(C)c1cc(C(=O)[O-])c(O)c(C(C)C)c1.CC(C)c1cc(C(=O)[O-])c(O)c(C(C)C)c1.CC(C)c1cc(C(=O)[O-])c(O)c(C(C)C)c1.CC(C)c1cc(C(=O)[O-])c(O)c(C(C)C)c1.[Cu+2].[Mn+2].[Mn+2]: 20.5 µM
COc1c(N2CCN(CN3C(=O)C(=O)c4ccccc43)C(C)C2)c(F)cc2c(=O)c(C(=O)O)cn(C3CC3)c12 (stereo unspecified): > 100 µM
Clc1ccc(COC(Cn2ccnc2)c2ccc(Cl)cc2Cl)c(Cl)c1 (stereo unspecified): 4.96 µM
COc1cccc(NC(=O)c2ccc(NC3=C(Cl)C(=O)N(Cc4ccccc4)C3=O)cc2)c1: 11.5 µM
Cc1nc2ccccc2c(/C=C/c2ccccc2)c1C(=O)/C=C/c1ccccc1: 1.83 µM

List GI50 for every entry below, keeping the order given.
1. C=C1C(=O)O[C@H]2[C@H]1CC/C(Cn1cc(-c3ccsc3)nn1)=C\CC[C@@]1(C)O[C@@H]21
2. CCCCCCCCCC[N+](C)(C)C

Output:
["1.81 µM", "3.07 µM"]

Input: Value wanted: GI50 (SK-MEL-28 melanoma) of entry CSC1SCC2C(=O)N(C)C(C(C)C)C(=O)OCC(NC(=O)c3cnc4ccccc4n3)C(=O)NC(C)C(=O)N(C)C1C(=O)N(C)C(C(C)C)C(=O)OCC(NC(=O)c1cnc3ccccc3n1)C(=O)NC(C)C(=O)N2C (stereo unspecified)
Output: < 0.001 µM
